Origin of the recorded values: PubChem BioAssay

z-score: recorded values
Assay: modulators of HCV replicon luciferase signal, primary screen, HCV replication inhibitor project, Huh7 cells, luciferase reporter (AID 1109);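 note: huh7 hepatoma cells harbouring a luciferase neomycin HCV replicon reporter; luciferase luminescence as measure of HCV replicon replication; test concentration not given here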
Settings: 48 h, higher = more signal

smiles notation	z-score
COC(=O)C(CC#Cc1ccc2c(c1)[C@]1(C(=O)N2)[C@H](C(=O)O)[C@H]2C(=O)O[C@H](c3ccccc3)[C@H](c3ccccc3)N2[C@@H]1c1ccc(O)cc1)C(=O)OC	-0.374
O=C1C[C@]2(c3ccc([N+](=O)[O-])cc3)C(=O)N(CCN3CCOCC3)c3cc(CO)ccc3[C@H]2N1C1CCCCC1	-0.809
Cc1ccc(S[C@]2(C(=O)NCCN3CCOCC3)CC(=O)N(Cc3ccccc3Cl)[C@@H]2c2ccc(CO)cc2)cc1	-0.815

* * *

Experiment: A549 cell viability effects, profiling panel, calcein-AM fluorescence, 48 h, basal (AID 1162); note: test concentration not given here
Conditions: higher = more signal
experimental readout: z-score

compound	experimental readout	result
CN1C(=O)C2C=CC(C(O)c3ccc(I)cc3)N(N3CCCCC3)C2C1=O (stereo unspecified)	z-score	-0.481
Cc1ccc(S[C@]2(C(=O)NC(C)C)CC(=O)N(Cc3ccccc3Cl)[C@@H]2c2ccc(CO)cc2I)cc1	z-score	-0.0542
O=C(c1ccccc1)N1Cc2ccccc2[C@@H]2OC(c3ccc(OCCCO)cc3)=N[C@]2(Cc2ccccc2)C1=O	z-score	-1.09
O=C1O[C@H](c2ccccc2)[C@H](c2ccccc2)N2[C@H]1[C@@H](C(=O)Nc1nc3ccccc3s1)[C@]1(C(=O)Nc3ccc(C#CC4(O)CCCCCC4)cc31)[C@H]2c1ccc(OCCO)cc1	z-score	-0.128
CCCCC=C[C@@H](NC(=O)Oc1cccc(C(F)(F)F)c1)c1ccccc1	z-score	-1.12
COc1ccc(C(O)C2C=CC3C(=O)NC(=O)C3N2Nc2ccccn2)c2ccccc12 (stereo unspecified)	z-score	0.606
CC(C)c1ccc(NN2C(C(O)C(c3ccccc3)c3ccccc3)C=CC3C(=O)N(c4ccccc4)C(=O)C32)cc1 (stereo unspecified)	z-score	-0.447
COCCOC(=O)N1C(=O)[C@@]2(c3cc(C#CC4=CCCCC4)ccc31)[C@H](c1ccc(O)cc1)N1[C@H](c3ccccc3)[C@H](c3ccccc3)OC(=O)[C@H]1[C@@H]2C(N)=O	z-score	0.505
O=C1OCCC/C=C\[C@H]2OC34C=CCN(CCN5CCOCC5)C(=O)[C@H]3N(CCCO)C(=O)[C@@H]4C12 (stereo partly specified)	z-score	-0.235
CN(C)CCCCCCNC(=O)[C@@H]1C[C@@H]2C(=O)N[C@@H](CCCCN)C(=O)N2[C@@H]1c1cccc(OCCO)c1	z-score	0.73
C=C(COC)/C(=C/C[C@H](OC(=O)c1ccncc1)c1ccc(OCCO)cc1)c1cnc2ccccc2c1	z-score	1.54
O=C1c2ccccc2[C@](Cc2ccccc2I)(C(=O)NC2CC2)[C@H](c2ccc(CO)cc2)N1C1CCCCC1	z-score	0.818
C=CCN(Cc1ccccc1)C(=O)C(c1cccs1)N(CCOCCO)C(=O)/C=C\C(=O)O (stereo unspecified)	z-score	0.902
CCCCCN1CC=CC23O[C@@H]4/C=C\CCCOC(=O)C4[C@H]2C(=O)N(CCCO)[C@@H]3C1=O (stereo partly specified)	z-score	-0.335
C=C(C)C1C(=C)CN([C@H](CO)c2ccccc2)C1=O (stereo partly specified)	z-score	-0.488
C=C/C=C/[C@H]1C(=C)CN([C@@H](Cc2ccccc2)C(=O)OC)[C@@H]1[C@H](O)Cc1ccccc1	z-score	-0.0859
